Listing of entries alongside the reported logP.
# Protocol: physchem
# Run conditions: octanol/water
Form rule: numeric answer, no unit written next to it.

// field: logP; key: CNC(=O)Oc1cccc(C(C)=O)c1 ; value = 0.9

// field: logP; key: N#Cc1ccc(S(N)(=O)=O)cc1 ; value = 0.23

---

# Protocol: physchem
# Run conditions: octanol/water
Listing of entries alongside the reported logP.
Form rule: numeric answer, no unit written next to it.

smiles_text=OCCCCO measurement_label=logP test_result=-2.68

// field: logP; key: OCCO ; value = -3.31

---

# Protocol: physchem
# Run conditions: octanol/water
Listing of entries alongside the reported logP.
Form rule: numeric answer, no unit written next to it.

smiles_text=COc1ccc(S(N)(=O)=O)cc1 test_result=0.47
smiles_text=Cc1cccc(O)c1 test_result=2.02
smiles_text=CCOc1ccc(OC(=O)NC)cc1 test_result=1.64
smiles_text=O=C(O)COc1cccc(Cl)c1 test_result=2.02
smiles_text=CNC(=O)Oc1ccccc1I test_result=1.96
smiles_text=Oc1ccc(I)cc1 test_result=2.91
smiles_text=CNC(=O)Oc1ccc(I)cc1 test_result=2.46

// field: logP; key: CNC(=O)Oc1cccc(C(C)C)c1 ; value = 2.63

Origin of measurements: ChEMBL document CHEMBL3244276
